Assay: Displacement of [3H]batrachotoxin from neurotoxin site 2 of voltage-gated sodium channel in rat forebrain tissue
Settings: read-out: IC50
Hi there, I'd appreciate the recorded pIC50 for every entry that follows.
The read-out pIC50 is expressed as -log10 of concentration in moles per litre.

Value of pIC50 reported for the molecule O=C1NC2(CCc3ccccc3C2)C(=O)N1CN1CCN(c2ccccc2)CC1 (centres undefined) is 5.03

Value of pIC50 reported for the molecule "O=C1NC(=O)C(c2ccccc2)(c2ccccc2)N1" is 4.40

Value of pIC50 reported for the molecule O=C1CC2(CCc3ccccc3C2)C(=O)N1CN1CCN(c2cccc(C(F)(F)F)c2)CC1 (centres undefined) is 5.03

Value of pIC50 reported for the molecule O=C1CC2(CCc3ccccc3C2)C(=O)N1CN1CCN(c2cccc(Cl)c2)CC1 (centres undefined) is 5.61
